Record form. Attribute: CC50 at 3 days. Fill in for each entry.
Experiment: Secondary HCV replicon cell assay genotype 1a, cytotoxicity (neutral red dye uptake)
Type: cell-based
Details: human
Output spec: scalar in µM, unitless text.

Problem: Could you tell me which CC50 at 3 days is on file for O=C(Nc1ncc([N+](=O)[O-])s1)c1ccccc1O [TIZ, tizoxanide, reference compound] ?
Solution: 27

Problem: Could you tell me which CC50 at 3 days is on file for O=C(Nc1cccc(F)c1)c1ccccc1O [Compound 3, N-(3-fluorophenyl)-2-hydroxybenzamide] ?
Solution: 9.9

Problem: Could you tell me which CC50 at 3 days is on file for O=C(Nc1ccc([N+](=O)[O-])cc1Cl)c1cc(Cl)ccc1O ?
Solution: 0.79

Problem: Could you tell me which CC50 at 3 days is on file for O=C(Nc1cc(C(F)(F)F)ccc1Cl)c1ccccc1O ?
Solution: 0.68

Problem: Could you tell me which CC50 at 3 days is on file for CC(=O)Oc1ccc(Cl)cc1C(=O)Nc1ccc([N+](=O)[O-])cc1Cl ?
Solution: 4.3

Problem: Could you tell me which CC50 at 3 days is on file for CC(=O)Oc1ccccc1C(=O)Nc1cc(C(F)(F)F)cc(C(F)(F)F)c1 ?
Solution: 7.8

Problem: Could you tell me which CC50 at 3 days is on file for COC(=O)c1ccc(NC(=O)c2ccccc2OC(C)=O)cc1 [Compound 44, methyl 4-(2-acetoxybenzamido)benzoate] ?
Solution: 7.5

----------
Experiment: Primary HCV replicon cell assay, cytotoxicity (neutral red dye uptake)
Format: cell-based
Conditions: human, AVA5 HCV replicon cells (sub-genomic CON1, genotype 1b), 3 days of treatment
Record form. Attribute: CC50 at 3 days. Fill in for each entry.

Problem: Could you tell me which CC50 at 3 days is on file for Cc1cccc(C(=O)Nc2ccc(Cl)cc2)c1O ?
Solution: > 100 µM

Problem: Could you tell me which CC50 at 3 days is on file for O=C(Nc1cccc(F)c1)c1ccccc1O [Compound 3, N-(3-fluorophenyl)-2-hydroxybenzamide] ?
Solution: > 100 µM

Problem: Could you tell me which CC50 at 3 days is on file for O=C(Nc1cccc(C(F)(F)F)c1)c1ccccc1O ?
Solution: > 100 µM

----------
Assay: Secondary HCV replicon cell assay genotype 1b, cytotoxicity (neutral red dye uptake)
Assay type: cell-based
Conditions: human, AVA5 HCV replicon cells (sub-genomic CON1)
Record form. Attribute: CC50 at 3 days. Fill in for each entry.
Output spec: scalar in µM, unitless text.

Problem: Could you tell me which CC50 at 3 days is on file for O=C(Nc1cccc(F)c1)c1ccccc1O [Compound 3, N-(3-fluorophenyl)-2-hydroxybenzamide] ?
Solution: 11

Problem: Could you tell me which CC50 at 3 days is on file for CC(=O)Oc1ccccc1C(=O)Nc1cc(C(F)(F)F)cc(C(F)(F)F)c1 ?
Solution: 9.5

Problem: Could you tell me which CC50 at 3 days is on file for CC(=O)Oc1ccc(Cl)cc1C(=O)Nc1ccc([N+](=O)[O-])cc1Cl ?
Solution: 3.4

Problem: Could you tell me which CC50 at 3 days is on file for COC(=O)c1ccc(NC(=O)c2ccccc2OC(C)=O)cc1 [Compound 44, methyl 4-(2-acetoxybenzamido)benzoate] ?
Solution: 6.8

Problem: Could you tell me which CC50 at 3 days is on file for O=C(Nc1cc(C(F)(F)F)ccc1Cl)c1ccccc1O ?
Solution: 0.79

Problem: Could you tell me which CC50 at 3 days is on file for O=C(Nc1ccc([N+](=O)[O-])cc1Cl)c1cc(Cl)ccc1O ?
Solution: 0.64

----------
System: HCV replicon cell line, AVA5 (sub-genomic CONI, genotype 1b)
Test: Secondary HCV replicon cell assay genotype 1b, antiviral activity
Format: cell-based
Conditions: Hepatitis C virus, 2-fold depression of intracellular HCV RNA
Procedure: Antiviral activity of test compounds was assessed in a 3-day assay using the stably-expressing HCV replicon cell line, AVA5 (sub-genomic CONI, genotype 1b) [Korba, B. E. et al. Antiviral Res. 77, 56-63 (2008); Blight et al., Science 290, 1972-1974 (2000)] maintained as sub-confluent cultures on 96-well plates as previously described [Okuse et al., Antiviral Research 65, 23-34 (2005)]. […]
pEC50: −log10 of the molar value.
Classification field: Y = pEC50 at or over 7; N = pEC50 under 7.

Problem: Entry O=C(Nc1cccc(F)c1)c1ccccc1O [Compound 3, N-(3-fluorophenyl)-2-hydroxybenzamide] : is its pEC50 no less than 7?
Solution: N

Problem: Entry O=C(Nc1cc(C(F)(F)F)ccc1Cl)c1ccccc1O : is its pEC50 no less than 7?
Solution: Y

Problem: Entry COC(=O)c1ccc(NC(=O)c2ccccc2OC(C)=O)cc1 [Compound 44, methyl 4-(2-acetoxybenzamido)benzoate] : is its pEC50 no less than 7?
Solution: N

Problem: Entry O=C(Nc1ncc([N+](=O)[O-])s1)c1ccccc1O [TIZ, tizoxanide, reference compound] : is its pEC50 no less than 7?
Solution: N

Problem: Entry CC(=O)Oc1ccccc1C(=O)Nc1cc(C(F)(F)F)cc(C(F)(F)F)c1 : is its pEC50 no less than 7?
Solution: N

Problem: Entry CC(=O)Oc1ccccc1C(=O)Nc1ncc([N+](=O)[O-])s1 [NTZ, nitazoxanide, reference compound] : is its pEC50 no less than 7?
Solution: N

----------
Test: Primary HCV replicon cell assay, cytotoxicity (neutral red dye uptake)
Type: cell-based
Conditions: human, AVA5 HCV replicon cells (sub-genomic CON1, genotype 1b), 3 days of treatment
Record form. Attribute: log10(CC50 at 3 days). Fill in for each entry.
Log10 applied to CC50 at 3 days; unit prior to transform: µM.

Problem: Could you tell me which log10(CC50 at 3 days) is on file for O=C(Nc1ccc(OC(F)(F)C(F)F)cc1)c1ccccc1O ?
Solution: 0.59

Problem: Could you tell me which log10(CC50 at 3 days) is on file for CC(=O)Oc1ccc(Cl)cc1C(=O)Nc1ccc([N+](=O)[O-])cc1Cl ?
Solution: 0.76

Problem: Could you tell me which log10(CC50 at 3 days) is on file for O=C(Nc1cc(C(F)(F)F)ccc1Cl)c1ccccc1O ?
Solution: -0.48

Problem: Could you tell me which log10(CC50 at 3 days) is on file for O=C(Nc1ccc([N+](=O)[O-])cc1Cl)c1cc(Cl)ccc1O ?
Solution: 1.04

Problem: Could you tell me which log10(CC50 at 3 days) is on file for O=C(O)c1ccccc1C(=O)Nc1ccccc1Cl ?
Solution: 1.89

----------
Record form. Attribute: pEC50. Fill in for each entry.
System: HCV replicon H/FL-Neo, genotype 1a full length construct, in Huh7 cells
Experiment: Secondary HCV replicon cell assay genotype 1a, antiviral activity
Type: cell-based
Settings: Hepatitis C virus, Huh-7, 2-fold depression of intracellular HCV RNA
Lab note: report pEC50 as minus log10 of the concentration in molar units, number only.

Problem: Could you tell me which pEC50 is on file for O=C(Nc1ccc([N+](=O)[O-])cc1Cl)c1cc(Cl)ccc1O ?
Solution: 6.96

Problem: Could you tell me which pEC50 is on file for CC(=O)Oc1ccccc1C(=O)Nc1ncc([N+](=O)[O-])s1 [NTZ, nitazoxanide, reference compound] ?
Solution: 6.48

Problem: Could you tell me which pEC50 is on file for O=C(Nc1cc(C(F)(F)F)ccc1Cl)c1ccccc1O ?
Solution: 7.26

Hello, the source for this data is patent US20120108592A1, in case you need it.
